Tested on: Helicobacter pylori
Assay: Inhibition of Helicobacter pylori FabZ at 50 uM
The source made the active and inactive calls. The calls are words filed in the database; no cut-off is given here.
observable: inhibition

[
  {
    "given smiles": "O=C(N/N=C/c1cc(Br)c(O)c(Br)c1O)c1ccncc1",
    "inhibition": "36.4%"
  },
  {
    "given smiles": "CC(=O)N/N=C/c1cc(Br)c(O)c(Br)c1O",
    "inhibition": "15.2%"
  },
  {
    "given smiles": "O=C(N/N=C/c1cc(Br)c(O)c(Br)c1O)c1ccco1",
    "inhibition": "39.4%"
  },
  {
    "given smiles": "O=C(Cc1ccc(O)cc1)N/N=C/c1cc(Br)c(O)c(Br)c1O",
    "inhibition": "50%"
  },
  {
    "given smiles": "COCCN1C(=O)/C(=C\\c2ccc(-c3ccc(Cl)c(C(=O)OC)c3)o2)S/C1=N/c1ccccc1",
    "inhibition": "inactive"
  }
]

Now, please, on to the next compound.
**Query** What measured inhibition goes with "O=C(N/N=C/c1cc(Br)c(O)c(Br)c1O)c1ccc(Cl)cc1" ?
**Result** 93.8%
